Biological target: HDAC3 (Homo sapiens, UniProt O15379)
Sequence (O15379 whole entry): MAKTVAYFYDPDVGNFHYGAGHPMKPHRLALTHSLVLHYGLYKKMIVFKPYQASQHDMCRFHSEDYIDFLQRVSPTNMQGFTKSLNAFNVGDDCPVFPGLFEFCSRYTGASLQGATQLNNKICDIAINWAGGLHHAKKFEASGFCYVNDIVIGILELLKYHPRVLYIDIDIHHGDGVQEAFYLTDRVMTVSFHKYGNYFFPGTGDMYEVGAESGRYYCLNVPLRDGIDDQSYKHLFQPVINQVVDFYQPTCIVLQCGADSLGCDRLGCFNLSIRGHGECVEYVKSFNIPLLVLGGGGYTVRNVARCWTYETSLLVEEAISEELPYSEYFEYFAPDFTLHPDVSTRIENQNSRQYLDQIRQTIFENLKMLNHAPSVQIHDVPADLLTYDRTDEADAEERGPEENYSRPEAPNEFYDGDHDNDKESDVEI
Sequence (Q9Y618 395-489 partner limits assumed): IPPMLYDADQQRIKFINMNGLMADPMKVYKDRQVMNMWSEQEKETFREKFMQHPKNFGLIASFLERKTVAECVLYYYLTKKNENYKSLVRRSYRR
Test: in vitro biochemical HDAC inhibition assay
Details: Table 3; read-out: IC50 HDAC3
Task for the reader: assign each of the following compounds its reported IC50.
Numbers only, in µM.

>>> print(df.to_string())
                              record_smiles  quantity_kind  unit_annotation  endpoint_value
0  CC(C)[C@@H](C(=O)N1CCC(C)(Nc2ncc(C(=O)NO)cn2)CC1)c1ccccc1           IC50               µM           0.422

Now turn to the next compound.
The recorded IC50 for O=C(NO)c1cnc(NC2(c3ccccc3)CCN(C(=O)Nc3ccc(Cl)c(Cl)c3)CC2)nc1 is 2.16
